target: Fyn (UniProt P06241); test: phosphorylation enrichment, bacterial display (enrichment ratio); higher = better substrate or ligand; peptides without Tyr show the background;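 also: 11-residue human phosphosite peptides and single-mutation variants displayed on the E. coli surface, counted by deep sequencing, each peptide's frequency after selection divided by its frequency in the unselected input library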;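 also: frequency after pTyr selection over input frequency; kinase dosed for 20-30% of maximal phosphorylation in three min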
Sequence (P06241 whole entry, looked up): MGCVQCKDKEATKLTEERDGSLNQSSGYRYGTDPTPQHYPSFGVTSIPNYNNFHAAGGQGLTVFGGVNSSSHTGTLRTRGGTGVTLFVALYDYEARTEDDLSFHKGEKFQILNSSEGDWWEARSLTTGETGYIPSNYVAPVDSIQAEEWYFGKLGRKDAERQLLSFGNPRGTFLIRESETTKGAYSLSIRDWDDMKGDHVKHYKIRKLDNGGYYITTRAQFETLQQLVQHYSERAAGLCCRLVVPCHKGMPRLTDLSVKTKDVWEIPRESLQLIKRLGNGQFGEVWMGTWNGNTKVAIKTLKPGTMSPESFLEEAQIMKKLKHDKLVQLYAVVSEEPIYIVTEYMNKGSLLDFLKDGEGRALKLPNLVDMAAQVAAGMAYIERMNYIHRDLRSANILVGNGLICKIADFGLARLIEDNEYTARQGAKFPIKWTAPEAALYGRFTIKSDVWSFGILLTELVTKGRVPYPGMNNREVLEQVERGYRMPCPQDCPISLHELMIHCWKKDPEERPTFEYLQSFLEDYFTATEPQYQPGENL
Listed next: entries and their corresponding phosphorylation enrichment.
property: phosphorylation enrichment

recordSequence: RDLTHYLMKIL [ACTG1_Y188_D187H]
testValue: 0.756

recordSequence: FLTQHYDAIPQ [ANG_Y38_K41I]
testValue: 0.586

recordSequence: SGETKYNPTEA [NBEAL2_Y2748_E2747K]
testValue: 0.459

recordSequence: GSIQQYTYKQE [PRG4_Y1271_I1272T]
testValue: 0.37

recordSequence: RPSELYYSKIS [SMG1_Y2253_G2258S]
testValue: 1.4

recordSequence: KLLRLYAVVTR [LYN_Y306_V303L]
testValue: 0.451

recordSequence: DPLLTYQFPPK [LMNA_Y481_R482Q]
testValue: 1.24

recordSequence: LYDPDFMKVIL [CYP4A22_Y104_Y104F]
testValue: 0.888

recordSequence: GFKVRYATWSI [FGFR1_Y210_YF]
testValue: 0.494

recordSequence: KVALLYKPFFF [POLE_Y100_P99L_YF]
testValue: 0.827

recordSequence: HILQLYRCREE [ALPK3_Y342_T338I]
testValue: 0.65

recordSequence: TKEPKYGGAGS [KIAA1210_Y1615_E1616G]
testValue: 0.459

recordSequence: FITVGYVDDTQ [HLA-B_Y51_S48T]
testValue: 0.529

###

molecular target: Fes (UniProt P07332); experiment: phosphorylation enrichment, bacterial display (enrichment ratio); higher = better substrate or ligand; peptides without Tyr show the background
Sequence (P07332 whole entry, looked up): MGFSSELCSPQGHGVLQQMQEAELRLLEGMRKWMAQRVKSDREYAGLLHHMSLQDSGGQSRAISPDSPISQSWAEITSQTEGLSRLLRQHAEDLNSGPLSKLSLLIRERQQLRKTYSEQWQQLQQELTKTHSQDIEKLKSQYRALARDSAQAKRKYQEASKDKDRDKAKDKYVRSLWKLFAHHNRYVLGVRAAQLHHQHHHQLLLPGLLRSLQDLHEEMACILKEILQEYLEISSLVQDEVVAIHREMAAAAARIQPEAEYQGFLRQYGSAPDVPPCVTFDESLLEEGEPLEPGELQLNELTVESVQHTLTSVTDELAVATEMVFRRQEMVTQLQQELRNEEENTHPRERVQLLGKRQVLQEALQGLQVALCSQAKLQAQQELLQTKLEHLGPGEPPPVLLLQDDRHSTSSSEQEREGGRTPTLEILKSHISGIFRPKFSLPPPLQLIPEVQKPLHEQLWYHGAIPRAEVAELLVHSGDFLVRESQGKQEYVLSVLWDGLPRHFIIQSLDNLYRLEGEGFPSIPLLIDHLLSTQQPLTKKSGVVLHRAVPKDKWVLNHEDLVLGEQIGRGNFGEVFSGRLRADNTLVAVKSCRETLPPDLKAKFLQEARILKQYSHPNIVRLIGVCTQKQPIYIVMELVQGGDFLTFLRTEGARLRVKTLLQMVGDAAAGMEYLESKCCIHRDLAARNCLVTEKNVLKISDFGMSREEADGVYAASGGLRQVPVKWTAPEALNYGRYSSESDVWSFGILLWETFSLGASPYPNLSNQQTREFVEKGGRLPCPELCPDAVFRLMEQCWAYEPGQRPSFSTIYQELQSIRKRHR

recordSequence: ATGGFYSYGGG [KRT24_Y120]
targetOrTestSystem: Fes (UniProt P07332)
phosphorylation enrichment: 1.11
//
recordSequence: YRIGPYQPNVP [MATR3_Y784]
targetOrTestSystem: Fes (UniProt P07332)
phosphorylation enrichment: 0.736
//
recordSequence: YGCGMYSHLQG [LGR4_Y848_D844G]
targetOrTestSystem: Fes (UniProt P07332)
phosphorylation enrichment: 1.07
//
recordSequence: FNNPAYYVLEG [INPPL1_Y986]
targetOrTestSystem: Fes (UniProt P07332)
phosphorylation enrichment: 0.958
//
recordSequence: HNELYYEAAEH [VANGL1_Y345_E347A]
targetOrTestSystem: Fes (UniProt P07332)
phosphorylation enrichment: 1.44
//
recordSequence: VECHPYFTQPK [AKR1D1_Y199]
targetOrTestSystem: Fes (UniProt P07332)
phosphorylation enrichment: 1.01
//
recordSequence: DPADRYLTEQF [CDKL5_Y286_C291Y_YF]
targetOrTestSystem: Fes (UniProt P07332)
phosphorylation enrichment: 1.35
//
recordSequence: DFLSSYSAVNQ [OAT_Y85]
targetOrTestSystem: Fes (UniProt P07332)
phosphorylation enrichment: 0.947
//
recordSequence: PVQAAYRKVVA [HBB_Y131_Q132R]
targetOrTestSystem: Fes (UniProt P07332)
phosphorylation enrichment: 0.505
//
recordSequence: PMWHPYKADVT [TP53TG5_Y255_V257A]
targetOrTestSystem: Fes (UniProt P07332)
phosphorylation enrichment: 1.12
//
recordSequence: HQNGTYGLHQD [SGSH_Y89_M88T]
targetOrTestSystem: Fes (UniProt P07332)
phosphorylation enrichment: 0.764
//
recordSequence: YSMGCYEISLG [HMGCL_Y198]
targetOrTestSystem: Fes (UniProt P07332)
phosphorylation enrichment: 1.47
//
recordSequence: REEKNYKLKET [BCLAF1_Y459]
targetOrTestSystem: Fes (UniProt P07332)
phosphorylation enrichment: 1.21
//
recordSequence: LINLKYSVEEE [PCDH19_Y27]
targetOrTestSystem: Fes (UniProt P07332)
phosphorylation enrichment: 2.46
//
recordSequence: FPHVISARLWR [SMAD4_Y95_Y95S]
targetOrTestSystem: Fes (UniProt P07332)
phosphorylation enrichment: 0.962
//
recordSequence: LKLWDYSRGRC [WDR5B_Y239]
targetOrTestSystem: Fes (UniProt P07332)
phosphorylation enrichment: 1.19
//
recordSequence: KVALLYKPFFF [POLE_Y100_P99L_YF]
targetOrTestSystem: Fes (UniProt P07332)
phosphorylation enrichment: 1.17
//
recordSequence: HHTNEYEFDEL [TGM1_Y134_D132N_YF]
targetOrTestSystem: Fes (UniProt P07332)
phosphorylation enrichment: 1.42
//
recordSequence: KPNMNYDKLSR [FLI1_Y332]
targetOrTestSystem: Fes (UniProt P07332)
phosphorylation enrichment: 0.486
//
recordSequence: FKDGQYWIRGW [ACSF3_Y466_R471W]
targetOrTestSystem: Fes (UniProt P07332)
phosphorylation enrichment: 1.13
//
recordSequence: YEREQYADRTR [RBM4_Y355_A359T]
targetOrTestSystem: Fes (UniProt P07332)
phosphorylation enrichment: 0.706
//
recordSequence: QNVADYMRYLM [RPL5_Y207]
targetOrTestSystem: Fes (UniProt P07332)
phosphorylation enrichment: 1.96
//
recordSequence: GSIQQYTYKQE [PRG4_Y1271_I1272T]
targetOrTestSystem: Fes (UniProt P07332)
phosphorylation enrichment: 0.94
//
recordSequence: IDSTPYRQWFE [RPS8_Y109_YF]
targetOrTestSystem: Fes (UniProt P07332)
phosphorylation enrichment: 0.856
//
recordSequence: NGRTGYVLQPE [PLCG2_Y1036]
targetOrTestSystem: Fes (UniProt P07332)
phosphorylation enrichment: 0.757
//
recordSequence: TYGNLYGSRKQ [YIPF7_Y59_A54T]
targetOrTestSystem: Fes (UniProt P07332)
phosphorylation enrichment: 0.6
//
recordSequence: PTTKTYFPHFH [HBA1_Y43_D48H]
targetOrTestSystem: Fes (UniProt P07332)
phosphorylation enrichment: 1.14
//
recordSequence: LDAFIYDAALL [GRIN2A_Y730_V734L]
targetOrTestSystem: Fes (UniProt P07332)
phosphorylation enrichment: 1.86
//
recordSequence: STDDGYIDLQF [TMEM230_Y29]
targetOrTestSystem: Fes (UniProt P07332)
phosphorylation enrichment: 1.09
//
recordSequence: LRNIDYFRLDG [ATRX_Y2083_YF]
targetOrTestSystem: Fes (UniProt P07332)
phosphorylation enrichment: 4.09
//
recordSequence: FHKALYTVRTY [PDE6C_Y266_S270T]
targetOrTestSystem: Fes (UniProt P07332)
phosphorylation enrichment: 1.26
//
recordSequence: LVRPPYSYLAL [FOXI1_Y126_S129L]
targetOrTestSystem: Fes (UniProt P07332)
phosphorylation enrichment: 0.645
//
recordSequence: WCSNDYLGMSQ [ALAS2_Y199_R204Q]
targetOrTestSystem: Fes (UniProt P07332)
phosphorylation enrichment: 1.02
//
recordSequence: ENAGFYFRVSA
targetOrTestSystem: Fes (UniProt P07332)
phosphorylation enrichment: 1.58
//
recordSequence: KDIENHIQDGK [RAD50_Y964_Y964H]
targetOrTestSystem: Fes (UniProt P07332)
phosphorylation enrichment: 0.684
//
recordSequence: GKSDPYHATTG [GJA1_Y247_S251T]
targetOrTestSystem: Fes (UniProt P07332)
phosphorylation enrichment: 0.506
//
recordSequence: HFMELYDLNRD [BBS2_Y648_R643H_YF]
targetOrTestSystem: Fes (UniProt P07332)
phosphorylation enrichment: 1.18
//
recordSequence: TGEKLYQHKEF [ZNF283_Y627_R629H]
targetOrTestSystem: Fes (UniProt P07332)
phosphorylation enrichment: 0.679
//
recordSequence: TCRPPYYHRNC [HGD_Y333_F329C]
targetOrTestSystem: Fes (UniProt P07332)
phosphorylation enrichment: 0.713
//
recordSequence: AKKVFYMIETR [SHH_Y253_V254M]
targetOrTestSystem: Fes (UniProt P07332)
phosphorylation enrichment: 1.24
//
recordSequence: SLNAVYPRAGR [OAS3_Y376_S381R]
targetOrTestSystem: Fes (UniProt P07332)
phosphorylation enrichment: 0.692
//
recordSequence: YETVKYINNER [ABCB7_Y345_F346I]
targetOrTestSystem: Fes (UniProt P07332)
phosphorylation enrichment: 0.943
//
recordSequence: ENRLDYGSAWA [AR_Y395_P392R]
targetOrTestSystem: Fes (UniProt P07332)
phosphorylation enrichment: 1.25
//
recordSequence: SQPASYQRRFL [PPIG_Y320_L324F]
targetOrTestSystem: Fes (UniProt P07332)
phosphorylation enrichment: 0.667
//
recordSequence: MGIMLYGVDSR [PKD1_Y3143_V3138M]
targetOrTestSystem: Fes (UniProt P07332)
phosphorylation enrichment: 1.08
//
recordSequence: VRVQLYDPDYM [CYP4A22_Y100]
targetOrTestSystem: Fes (UniProt P07332)
phosphorylation enrichment: 1.27
//
recordSequence: WNGDKYAATTT [TRIM39_Y439]
targetOrTestSystem: Fes (UniProt P07332)
phosphorylation enrichment: 0.731
//
recordSequence: SVETPYGSVTF [NDRG2_Y47]
targetOrTestSystem: Fes (UniProt P07332)
phosphorylation enrichment: 0.928
//
recordSequence: QKFMAYPSQGG [HLCS_Y236_L237P]
targetOrTestSystem: Fes (UniProt P07332)
phosphorylation enrichment: 0.886
//
recordSequence: WVFNHYRWFIW [BRCA2_Y2624_I2627F_YF]
targetOrTestSystem: Fes (UniProt P07332)
phosphorylation enrichment: 1.32
//
recordSequence: LQTYRYHGLSM [PDHA1_Y289_H292L]
targetOrTestSystem: Fes (UniProt P07332)
phosphorylation enrichment: 1.13
//
recordSequence: KIIATYRLCSE [DNAH3_Y1586_V1583I]
targetOrTestSystem: Fes (UniProt P07332)
phosphorylation enrichment: 0.951
//
recordSequence: SHGQDYLVGNK [GSTA1_Y147]
targetOrTestSystem: Fes (UniProt P07332)
phosphorylation enrichment: 0.74
//
recordSequence: IRSGIYYKPES [L2HGDH_Y102_H98R]
targetOrTestSystem: Fes (UniProt P07332)
phosphorylation enrichment: 0.687
//
recordSequence: SGPRRYNIAAL [TTR_Y125_T126N]
targetOrTestSystem: Fes (UniProt P07332)
phosphorylation enrichment: 0.52
//
recordSequence: GADAIYDHINE [UQCR10_Y44]
targetOrTestSystem: Fes (UniProt P07332)
phosphorylation enrichment: 0.953
//
recordSequence: TKYVAYIESQG [KDM4B_Y34_N29T]
targetOrTestSystem: Fes (UniProt P07332)
phosphorylation enrichment: 0.828
//
recordSequence: FMGVEYSSCDT [EPHA3_Y937_T933M]
targetOrTestSystem: Fes (UniProt P07332)
phosphorylation enrichment: 1.31
